System: E. coli TEM-1 ?
Type: cell-based

Compound	Target Or System	Interpretation
O=C1CN(/N=C/c2ccc([N+](=O)[O-])o2)C(=O)N1 [Nitrofuran ?]	E. coli TEM-1 ?	S
NC[C@H]1O[C@H](O[C@H]2[C@H](O)[C@@H](O[C@H]3O[C@H](CO)[C@@H](O)[C@H](N)[C@H]3O)[C@H](N)C[C@@H]2N)[C@H](N)C[C@@H]1O [Tobramycin]	E. coli TEM-1 ?	S
CO/N=C(\C(=O)N[C@@H]1C(=O)N2C(C(=O)O)=C(COC(N)=O)CS[C@H]12)c1ccco1 [C ? xime]	E. coli TEM-1 ?	R
CC(C)(O/N=C(\C(=O)N[C@@H]1C(=O)N2C(C(=O)[O-])=C(C[n+]3ccccc3)CS[C@H]12)c1csc(N)n1)C(=O)O [C ? dime]	E. coli TEM-1 ?	R
C[C@@H](O)[C@H]1C(=O)N2C(C(=O)O)=C(S[C@@H]3CN[C@H](C(=O)N(C)C)C3)[C@H](C)[C@H]12 [Meropen ? m]	E. coli TEM-1 ?	S
CO/N=C(\C(=O)N[C@@H]1C(=O)N2C(C(=O)[O-])=C(C[N+]3(C)CCCC3)CS[C@H]12)c1csc(N)n1 [C ? ime]	E. coli TEM-1 ?	R
CO[C@@]1(NC(=O)Cc2cccs2)C(=O)N2C(C(=O)O)=C(COC(N)=O)CS[C@@H]21 [C ? tin]	E. coli TEM-1 ?	S
CO/N=C(\C(=O)N[C@@H]1C(=O)N2C(C(=O)OC(C)OC(C)=O)=C(COC(N)=O)CS[C@H]12)c1ccco1 (some centres unmarked)	E. coli TEM-1 ?	R
NCC[C@H](O)C(=O)N[C@@H]1C[C@H](N)[C@@H](O[C@H]2O[C@H](CN)[C@@H](O)[C@H](O)[C@H]2O)[C@H](O)[C@H]1O[C@H]1O[C@H](CO)[C@@H](O)[C@H](N)[C@H]1O [Amikacin]	E. coli TEM-1 ?	S
CC1(C)S[C@@H]2[C@H](NC(=O)[C@H](N)c3ccccc3)C(=O)N2[C@H]1C(=O)O [ampicillin, Ampicillin]	E. coli TEM-1 ?	R
CO/N=C(\C(=O)N[C@@H]1C(=O)N2C(C(=O)O)=C(COC(C)=O)CS[C@H]12)c1csc(N)n1 [Cef ? axime]	E. coli TEM-1 ?	R
